endpoint: melting point

Worked examples follow.
[
  {
    "molecule": "COc1ccc(-c2cc3ccc(N4C[C@@H](C)N[C@@H](C)C4)cc3oc2=O)cc1OC",
    "result_value": "130 to 132 °C"
  },
  {
    "molecule": "Cc1cn2cc(-c3cc4ccc(N5CC[C@H](N(C)C)C5)cc4oc3=O)nc2c(C)n1",
    "result_value": "244 to 246 °C"
  },
  {
    "molecule": "CC(C)NC(C)c1ccc2cc(-c3nc4ccccc4s3)c(=O)oc2c1 (centres unmarked)",
    "result_value": "135 to 137 °C"
  }
]

Q. What does the record list as melting point for "Cc1cc2cc(-c3cc4ccc(N5CCN(C(C)C)CC5)cc4oc3=O)oc2c(C)n1" ?
A. 186 to 189 °C

Q. Again, but for "CCN1CCN(c2ccc3cc(-c4cn5cc(C)ncc5n4)c(=O)oc3c2)CC1"
A. 242 to 255 °C

Q. One more molecule: "C[C@@H]1CN[C@@H](C)CN1c1ccc2cc(-c3cn4ccc(C(F)(F)F)cc4n3)c(=O)oc2c1"
A. 213 to 219 °C

Q. What would you report for Cc1cn2cc(-c3cc4ccc(N5CCN6CCCCC6C5)cc4oc3=O)nc2c(C)n1 (centres unmarked) ?
A. 225 to 227 °C

Q. Next: "CC(C)Oc1cccc(-c2cc3ccc(N4CCNCC4)cc3oc2=O)n1"
A. 177 to 180 °C

Q. Subsequent entry: O=c1oc2cc(CN3CCC(O)C3)ccc2cc1-c1nc2c(Cl)cccc2s1 (centres unmarked)
A. 188 to 192 °C

Q. Would you mind doing CC(CO)NCc1ccc2cc(-c3nc4c(Cl)cccc4s3)c(=O)oc2c1 (centres unmarked) as well?
A. 186 to 190 °C

Q. Further, for "Cc1cn2cc(-c3cc4ccc(OCCN5CC[C@@H](O)C5)cc4oc3=O)nc2c(C)n1" ?
A. 195 to 202 °C

Q. Try "Cc1cnc2nc(-c3cc4ccc(N5CCCN(C)CC5)cc4oc3=O)cn2c1" next.
A. 285 to 287 °C

Q. # repeat for "CN1CCN(c2ccc3cc(-c4nc(-c5ccccc5)cs4)c(=O)oc3c2)CC1"
A. 205 to 210 °C

Q. Also need "CCN1CCC(c2ccc3cc(-c4cn5cc(C)ncc5n4)c(=O)oc3c2)CC1" , thanks.
A. 249 to 259 °C

Q. "Cc1nccn2cc(-c3cc4ccc(N5CCN6CCC[C@@H]6C5)cc4oc3=O)cc12" , same question.
A. 170 to 173 °C

Q. Next entry: "COc1cccc(-c2cc3ccc(N4CCNCC4)cc3oc2=O)c1"
A. 127 to 130 °C

Q. Please do the same for "CN1CCN(c2ccc3cc(-c4cn5cc(C6CC6)cc(F)c5n4)c(=O)oc3c2)CC1" as well.
A. 277 to 287 °C

Every entry's value here was drawn from patent USRE47689E1.
